biological target: Disintegrin and metalloproteinase domain-containing protein 10 (Homo sapiens) (UniProt O14672); test: inhibition of ADAM10 peptide cleavage – biochemical, FRET peptide substrate, recombinant human ADAM10, selectivity assay for ADAM17 exosite inhibitor project, dose response (AID 743259)
Sequence (O14672 214-748 limits assumed): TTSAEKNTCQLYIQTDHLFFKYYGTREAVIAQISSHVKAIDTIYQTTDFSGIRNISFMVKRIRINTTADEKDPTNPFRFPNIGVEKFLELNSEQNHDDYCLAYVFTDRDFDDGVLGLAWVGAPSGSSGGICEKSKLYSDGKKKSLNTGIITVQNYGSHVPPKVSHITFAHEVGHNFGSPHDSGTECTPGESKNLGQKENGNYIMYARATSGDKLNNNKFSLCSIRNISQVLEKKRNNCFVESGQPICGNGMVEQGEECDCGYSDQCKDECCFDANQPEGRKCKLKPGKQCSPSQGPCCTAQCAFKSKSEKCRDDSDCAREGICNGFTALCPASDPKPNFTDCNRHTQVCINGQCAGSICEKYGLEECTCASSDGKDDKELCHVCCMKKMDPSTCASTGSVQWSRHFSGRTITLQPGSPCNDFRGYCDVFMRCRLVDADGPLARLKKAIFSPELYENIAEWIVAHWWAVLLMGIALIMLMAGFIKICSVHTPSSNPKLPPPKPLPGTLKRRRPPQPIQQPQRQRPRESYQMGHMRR
Active and inactive are the calls of the source. The rule behind the calls is not given here.
experimental_endpoint: IC50

[[record]]
molecule = "Oc1c(C(c2ccccn2)N2CCCCC2)cc(Cl)c2cccnc12 (centres undefined)"
experimental_endpoint = "IC50"
result = "9.05 µM"

[[record]]
molecule = "CCCOC(=O)c1ccc(Oc2cn[nH]c2-c2ccc(OCC)cc2O)cc1"
experimental_endpoint = "IC50"
result = "inactive"

[[record]]
molecule = "C=C(C)CN1CCN(S(=O)(=O)c2ccc(C)c(N(C)S(=O)(=O)c3ccc(C)cc3)c2C)CC1"
experimental_endpoint = "IC50"
result = "> 69.5 µM (inactive)"

[[record]]
molecule = "COc1ccc(N(CC(O)Cn2c3ccccc3c3ccccc32)S(=O)(=O)c2ccccc2)cc1 (centres undefined)"
experimental_endpoint = "IC50"
result = "> 69.5 µM (inactive)"

[[record]]
molecule = "COCCN=c1scc(-c2cc(OC)c(OC)c(OC)c2)n1/N=C/c1c(C)[nH]c2ccccc12"
experimental_endpoint = "IC50"
result = "> 69.5 µM (inactive)"

[[record]]
molecule = "Cc1ccccc1NC(C)C(=O)N/N=C/c1ccccc1OCc1cccc(Br)c1 (centres undefined)"
experimental_endpoint = "IC50"
result = "> 69.5 µM (inactive)"

[[record]]
molecule = "C/C(=N\\N=C(/N)SC1CC(=O)N(c2ccccc2)C1=O)c1cccs1 (centres undefined)"
experimental_endpoint = "IC50"
result = "9.96 µM"

[[record]]
molecule = "CC(=NNC(=O)CSc1nnc(-c2ccc(C(C)(C)C)cc2)n1-c1ccccc1)c1cccc2ccccc12"
experimental_endpoint = "IC50"
result = "> 69.5 µM (inactive)"

[[record]]
molecule = "CC(C)(C)c1ccc(OCc2nc(-c3ccccn3)no2)c(Br)c1"
experimental_endpoint = "IC50"
result = "inactive"

[[record]]
molecule = "O=C(NCC1CCCO1)C(c1cccs1)N(Cc1ccccc1)C(=O)c1ccc(-c2ccccc2)[nH]1 (centres undefined)"
experimental_endpoint = "IC50"
result = "> 69.5 µM (inactive)"

[[record]]
molecule = "COC(=O)c1cccc(Cn2c(Cl)c(/C=N/Nc3ccccc3C)sc2=O)c1"
experimental_endpoint = "IC50"
result = "> 69.5 µM (inactive)"

[[record]]
molecule = "C/C(=N\\N=C(/N)SC1CC(=O)N(c2ccc(Br)cc2)C1=O)c1cccs1 (centres undefined)"
experimental_endpoint = "IC50"
result = "inactive"

[[record]]
molecule = "O=C1OCCN1C(=O)[C@H]1[C@H](c2ccc([N+](=O)[O-])cc2)C(c2ccccc2)=NN1c1ccc(Br)cc1"
experimental_endpoint = "IC50"
result = "> 69.5 µM (inactive)"

[[record]]
molecule = "Cc1cc(SCC(=O)c2ccc(O)c(O)c2)n2nc(C)c(-c3ccccc3)c2n1"
experimental_endpoint = "IC50"
result = "> 69.5 µM (inactive)"

[[record]]
molecule = "COc1cccc(C2C(C#N)=C(N)Oc3c2oc(CO)cc3=O)c1 (centres undefined)"
experimental_endpoint = "IC50"
result = "> 69.5 µM (inactive)"

[[record]]
molecule = "CCOc1ccc(NC(=O)CC2SC(=O)N(c3ccccc3)C2=O)cc1 (centres undefined)"
experimental_endpoint = "IC50"
result = "inactive"

[[record]]
molecule = "O=C(CC1SC(=O)N(c2ccccc2)C1=O)Nc1ccccc1 (centres undefined)"
experimental_endpoint = "IC50"
result = "inactive"

[[record]]
molecule = "CC(=O)c1cccc(NC(=O)C(OC(=O)c2ccccc2NS(=O)(=O)c2cccs2)c2ccccc2)c1 (centres undefined)"
experimental_endpoint = "IC50"
result = "> 69.5 µM (inactive)"

[[record]]
molecule = "COCCN=c1scc(-c2cc(OC)ccc2OC)n1/N=C/c1c[nH]c2ccccc12"
experimental_endpoint = "IC50"
result = "> 69.5 µM (inactive)"


The measured values listed here are drawn from PubChem BioAssay AID743259.
